tested_on: 5-hydroxytryptamine receptor 2B (Homo sapiens, UniProt P41595)
Sequence (P41595 whole entry): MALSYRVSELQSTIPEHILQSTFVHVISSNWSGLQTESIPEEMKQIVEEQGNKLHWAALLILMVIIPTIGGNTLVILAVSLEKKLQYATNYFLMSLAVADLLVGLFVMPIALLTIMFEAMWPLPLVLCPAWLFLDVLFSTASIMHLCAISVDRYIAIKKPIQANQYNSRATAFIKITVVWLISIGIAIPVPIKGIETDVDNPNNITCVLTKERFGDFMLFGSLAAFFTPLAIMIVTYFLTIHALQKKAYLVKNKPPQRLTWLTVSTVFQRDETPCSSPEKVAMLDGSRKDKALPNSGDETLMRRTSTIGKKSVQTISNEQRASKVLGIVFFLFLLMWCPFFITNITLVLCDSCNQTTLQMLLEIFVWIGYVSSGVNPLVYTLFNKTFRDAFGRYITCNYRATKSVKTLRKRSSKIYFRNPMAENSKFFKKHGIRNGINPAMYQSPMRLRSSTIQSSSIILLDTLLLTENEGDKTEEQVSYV
Type: functional, cell-based
attribute_measured: AC50

1. CCc1cc2c(s1)-n1c(C)nnc1CN=C2c1ccccc1Cl [ETIZOLAM]; > 30 µM
2. CN1Cc2c(N)cccc2C(c2ccccc2)C1 (stereo unspecified) [NOMIFENSINE]; > 30 µM
3. Cc1ccccc1-n1c(CF)nc2ccc(N)cc2c1=O [AFLOQUALONE]; > 10 µM
4. O=C1c2ccccc2C(=O)C1c1ccccc1 [PHENINDIONE]; > 10 µM
5. NNC(=O)c1ccncc1 [ISONIAZID]; > 30 µM
6. CN[C@]1(c2ccccc2Cl)CCCCC1=O [ESKETAMINE]; > 30 µM

Just for reference, ChEMBL document CHEMBL5291721 is where these values come from.
